Reported MIC values for the following compounds.
Test system: Apophysomyces
Assay: Antifungal activity against Apophysomyces spp. after 48 hrs by microdilution method
Assay type: functional
State just the number; it will be interpreted in µg/mL.

# smilesInput, measureUnit, MIC
records = [
    ("C[C@@H](c1ncncc1F)[C@](O)(Cn1cncn1)c1ccc(F)cc1F", "µg/mL", 16),
]

In: Which measured MIC value corresponds to CN(C/C=C/C#CC(C)(C)C)Cc1cccc2ccccc12 ?
Out: 2

In: Which measured MIC value corresponds to C[C@@H](c1nc(-c2ccc(C#N)cc2)cs1)[C@](O)(Cn1cncn1)c1ccc(F)cc1F ?
Out: 4

###

Reported MIC values for the following molecules.
Tested on: Apophysomyces
Assay: Antifungal activity against Apophysomyces spp. after 48 hrs by microdilution method
Format: functional
State just the number; it will be interpreted in µg/mL.

// known answers, use as guide
# molecule, experimentalEndpoint, measured
data = [
    ("CCC(C)n1ncn(-c2ccc(N3CCN(c4ccc(OCC5COC(Cn6cncn6)(c6ccc(Cl)cc6Cl)O5)cc4)CC3)cc2)c1=O (stereo not drawn)", "MIC", 16),
    ("CC[C@@H]([C@H](C)O)n1ncn(-c2ccc(N3CCN(c4ccc(OC[C@@H]5CO[C@@](Cn6cncn6)(c6ccc(F)cc6F)C5)cc4)CC3)cc2)c1=O", "MIC", 1),
]

Consider the record given below.
In: Which measured MIC value corresponds to C[C@@H]1[C@H](O)[C@@H](C)/C=C/C=C/C=C/C=C/C=C/C=C/C=C/[C@H](O[C@@H]2O[C@H](C)[C@@H](O)[C@H](N)[C@@H]2O)C[C@@H]2O[C@](O)(C[C@@H](O)C[C@@H](O)[C@H](O)CC[C@@H](O)C[C@@H](O)CC(=O)O[C@H]1C)C[C@H](O)[C@H]2C(=O)O ?
Out: 8

###

System: Actinomucor
Experiment: Antifungal activity against Actinomucor spp. after 48 hrs by microdilution method
Assay type: functional
experimentalEndpoint: MIC (µg/mL)
State just the number; it will be interpreted in µg/mL.

// known answers, use as guide
# compound, MIC [µg/mL]
data = [
    ("C[C@@H]1[C@H](O)[C@@H](C)/C=C/C=C/C=C/C=C/C=C/C=C/C=C/[C@H](O[C@@H]2O[C@H](C)[C@@H](O)[C@H](N)[C@@H]2O)C[C@@H]2O[C@](O)(C[C@@H](O)C[C@@H](O)[C@H](O)CC[C@@H](O)C[C@@H](O)CC(=O)O[C@H]1C)C[C@H](O)[C@H]2C(=O)O", 1.41),
    ("CN(C/C=C/C#CC(C)(C)C)Cc1cccc2ccccc12", 0.36),
    ("C[C@@H](c1nc(-c2ccc(C#N)cc2)cs1)[C@](O)(Cn1cncn1)c1ccc(F)cc1F", 0.5),
    ("C[C@@H](c1ncncc1F)[C@](O)(Cn1cncn1)c1ccc(F)cc1F", 22.6),
    ("CCC(C)n1ncn(-c2ccc(N3CCN(c4ccc(OCC5COC(Cn6cncn6)(c6ccc(Cl)cc6Cl)O5)cc4)CC3)cc2)c1=O (stereo unspecified)", 2),
]

Consider the record given below.
In: Which measured MIC value corresponds to CC[C@@H]([C@H](C)O)n1ncn(-c2ccc(N3CCN(c4ccc(OC[C@@H]5CO[C@@](Cn6cncn6)(c6ccc(F)cc6F)C5)cc4)CC3)cc2)c1=O ?
Out: 0.125

###

Test system: Lichtheimia corymbifera
Experiment: Antifungal activity against Mycocladus corymbifer after 24 hrs by microdilution method
Type: functional
MIC under 0.7 µg/mL gets yes (1), anything at or over 0.7 µg/mL gets no (0).

# compound, cat
records = [
    ("CN(C/C=C/C#CC(C)(C)C)Cc1cccc2ccccc12 [TERBINAFINE]", "yes (1)"),
    ("C[C@@H](c1ncncc1F)[C@](O)(Cn1cncn1)c1ccc(F)cc1F [VORICONAZOLE]", "no (0)"),
    ("C[C@@H](c1nc(-c2ccc(C#N)cc2)cs1)[C@](O)(Cn1cncn1)c1ccc(F)cc1F [RAVUCONAZOLE]", "no (0)"),
]

In: I'd appreciate it if you could check whether C[C@@H]1[C@H](O)[C@@H](C)/C=C/C=C/C=C/C=C/C=C/C=C/C=C/[C@H](O[C@@H]2O[C@H](C)[C@@H](O)[C@H](N)[C@@H]2O)C[C@@H]2O[C@](O)(C[C@@H](O)C[C@@H](O)[C@H](O)CC[C@@H](O)C[C@@H](O)CC(=O)O[C@H]1C)C[C@H](O)[C@H]2C(=O)O [AMPHOTERICIN B] has MIC smaller than 0.7 µg/mL.
Out: yes (1)

In: I'd appreciate it if you could check whether CC[C@@H]([C@H](C)O)n1ncn(-c2ccc(N3CCN(c4ccc(OC[C@@H]5CO[C@@](Cn6cncn6)(c6ccc(F)cc6F)C5)cc4)CC3)cc2)c1=O [POSACONAZOLE] has MIC smaller than 0.7 µg/mL.
Out: yes (1)

###

Assay: Antifungal activity against Rhizomucor variabilis after 24 hrs by microdilution method
Assay type: functional
Reported MIC values for the following compounds.
The reply must contain the numeric value and, after it, the unit.

# compound, MIC
records = [
    ("CN(C/C=C/C#CC(C)(C)C)Cc1cccc2ccccc12 [TERBINAFINE]", "32 µg/mL"),
    ("C[C@@H]1[C@H](O)[C@@H](C)/C=C/C=C/C=C/C=C/C=C/C=C/C=C/[C@H](O[C@@H]2O[C@H](C)[C@@H](O)[C@H](N)[C@@H]2O)C[C@@H]2O[C@](O)(C[C@@H](O)C[C@@H](O)[C@H](O)CC[C@@H](O)C[C@@H](O)CC(=O)O[C@H]1C)C[C@H](O)[C@H]2C(=O)O [AMPHOTERICIN B]", "0.03 µg/mL"),
    ("C[C@@H](c1nc(-c2ccc(C#N)cc2)cs1)[C@](O)(Cn1cncn1)c1ccc(F)cc1F [RAVUCONAZOLE]", "8 µg/mL"),
    ("C[C@@H](c1ncncc1F)[C@](O)(Cn1cncn1)c1ccc(F)cc1F [VORICONAZOLE]", "16 µg/mL"),
    ("CCC(C)n1ncn(-c2ccc(N3CCN(c4ccc(OCC5COC(Cn6cncn6)(c6ccc(Cl)cc6Cl)O5)cc4)CC3)cc2)c1=O (stereo unspecified) [ITRACONAZOLE]", "16 µg/mL"),
]

In: Which measured MIC value corresponds to CC[C@@H]([C@H](C)O)n1ncn(-c2ccc(N3CCN(c4ccc(OC[C@@H]5CO[C@@](Cn6cncn6)(c6ccc(F)cc6F)C5)cc4)CC3)cc2)c1=O [POSACONAZOLE] ?
Out: 1.41 µg/mL

###

Reported log10 of MIC values for the following compounds.
Assay: Antifungal activity against Rhizopus microsporus after 48 hrs by microdilution method
Type: functional
Note: values are log10 of MIC expressed in µg/mL.

# compound, log10 of MIC
data = [
    ("CC[C@@H]([C@H](C)O)n1ncn(-c2ccc(N3CCN(c4ccc(OC[C@@H]5CO[C@@](Cn6cncn6)(c6ccc(F)cc6F)C5)cc4)CC3)cc2)c1=O", 0.50),
    ("CCC(C)n1ncn(-c2ccc(N3CCN(c4ccc(OCC5COC(Cn6cncn6)(c6ccc(Cl)cc6Cl)O5)cc4)CC3)cc2)c1=O (stereo unspecified)", 0.55),
    ("C[C@@H]1[C@H](O)[C@@H](C)/C=C/C=C/C=C/C=C/C=C/C=C/C=C/[C@H](O[C@@H]2O[C@H](C)[C@@H](O)[C@H](N)[C@@H]2O)C[C@@H]2O[C@](O)(C[C@@H](O)C[C@@H](O)[C@H](O)CC[C@@H](O)C[C@@H](O)CC(=O)O[C@H]1C)C[C@H](O)[C@H]2C(=O)O", -0.05),
]

In: Which measured log10 of MIC value corresponds to C[C@@H](c1ncncc1F)[C@](O)(Cn1cncn1)c1ccc(F)cc1F ?
Out: 0.95

In: Which measured log10 of MIC value corresponds to C[C@@H](c1nc(-c2ccc(C#N)cc2)cs1)[C@](O)(Cn1cncn1)c1ccc(F)cc1F ?
Out: 0.25

In: Which measured log10 of MIC value corresponds to CN(C/C=C/C#CC(C)(C)C)Cc1cccc2ccccc12 ?
Out: 0.15

###

System: Actinomucor
Test: Antifungal activity against Actinomucor spp. after 24 hrs by microdilution method
Assay type: functional
Reported MIC values for the following compounds.
State just the number; it will be interpreted in µg/mL.

# compound, measured
rows = [
    ("CCC(C)n1ncn(-c2ccc(N3CCN(c4ccc(OCC5COC(Cn6cncn6)(c6ccc(Cl)cc6Cl)O5)cc4)CC3)cc2)c1=O (stereo unspecified)", 2),
    ("C[C@@H](c1ncncc1F)[C@](O)(Cn1cncn1)c1ccc(F)cc1F", 16),
    ("C[C@@H]1[C@H](O)[C@@H](C)/C=C/C=C/C=C/C=C/C=C/C=C/C=C/[C@H](O[C@@H]2O[C@H](C)[C@@H](O)[C@H](N)[C@@H]2O)C[C@@H]2O[C@](O)(C[C@@H](O)C[C@@H](O)[C@H](O)CC[C@@H](O)C[C@@H](O)CC(=O)O[C@H]1C)C[C@H](O)[C@H]2C(=O)O", 1),
    ("CN(C/C=C/C#CC(C)(C)C)Cc1cccc2ccccc12", 0.125),
    ("CC[C@@H]([C@H](C)O)n1ncn(-c2ccc(N3CCN(c4ccc(OC[C@@H]5CO[C@@](Cn6cncn6)(c6ccc(F)cc6F)C5)cc4)CC3)cc2)c1=O", 0.06),
]

Consider the record given below.
In: Which measured MIC value corresponds to C[C@@H](c1nc(-c2ccc(C#N)cc2)cs1)[C@](O)(Cn1cncn1)c1ccc(F)cc1F ?
Out: 0.25

Where these numbers come from: ChEMBL document CHEMBL1629671
